Biological target: human ALK5 (Homo sapiens, UniProt P36897)
Experiment: ALK5 Enzyme Assay 2 (fluorescence polarisation probe displacement)
Format: binding
Set-up: 6His tagged human ALK5 (residues162-503) was grown and purified from insect cells; 6His; made in house; host or cells: insect cells
Conditions: read-out: EAA2: activity (μM) using Enzyme Assay 2
measurement-name: IC50 (µM)

Guide cases for IC50, answers given:
[[record]]
compound = "Cc1ccc(Oc2ccnc(Nc3ccccn3)c2)c(-c2ccccc2)n1 [Example 150]"
study_target = "human ALK5 (Homo sapiens, UniProt P36897)"
measurement_name = "IC50"
measurement_unit = "µM"
value_reported = 0.0047

[[record]]
compound = "COc1cc(Nc2cc(Oc3cccnc3Cl)ccn2)cc(OC)c1OC [Example 53]"
study_target = "human ALK5 (Homo sapiens, UniProt P36897)"
measurement_name = "IC50"
measurement_unit = "µM"
value_reported = 0.249

[[record]]
compound = "Cc1ccc(Oc2ccnc(Nc3ccc(S(=O)(=O)N4CCCCC4)cc3)c2)c(C)n1 [Example 115]"
study_target = "human ALK5 (Homo sapiens, UniProt P36897)"
measurement_name = "IC50"
measurement_unit = "µM"
value_reported = 5.41


1 = CC(=O)Nc1cc(Nc2cc(Oc3cc(C)c(C)nc3-c3ccccn3)ccn2)ccc1C [Example 16]
2 = Cc1ccc(Oc2ccnc(Nc3ccc(C(=O)NCCN4CCCCC4)cc3)c2)c(C)n1 [Example 217]
3 = COc1cc(Nc2cc(Oc3ccc(C)nc3-c3cnccn3)ccn2)cc(OC)c1OC [Example 48]
Exercise: Rank the 3 compounds: largest IC50 first, smallest last. # respond with the labels, arranged in the requested order
Solution: 3, 2, 1
(3: 0.0486 µM, 2: 0.0121 µM, 1: 0.00602 µM)

* * *

Target: human ALK5 (Homo sapiens)
Sequence (P36897 162-503): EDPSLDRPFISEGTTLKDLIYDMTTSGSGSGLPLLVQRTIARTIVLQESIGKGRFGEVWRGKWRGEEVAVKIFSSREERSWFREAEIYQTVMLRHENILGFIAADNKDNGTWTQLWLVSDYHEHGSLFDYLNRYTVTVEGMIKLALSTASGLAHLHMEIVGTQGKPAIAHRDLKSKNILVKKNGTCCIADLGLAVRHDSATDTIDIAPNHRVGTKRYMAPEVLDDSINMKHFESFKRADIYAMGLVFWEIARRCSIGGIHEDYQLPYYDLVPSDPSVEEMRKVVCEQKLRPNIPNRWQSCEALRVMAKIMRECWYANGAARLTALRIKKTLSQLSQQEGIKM
Assay: ALK5 Enzyme Assay 2 (fluorescence polarisation probe displacement)
Assay type: binding
Set-up: 6His tagged human ALK5 (residues162-503) was grown and purified from insect cells; 6His; made in house; host or cells: insect cells
Conditions: read-out: EAA2: activity (μM) using Enzyme Assay 2
Protocol: The ability of a compound to bind and inhibit ALK5 can be measured by its capacity to displace a probe molecule from recombinant ALK5 in an in vitro assay. Provided the probe molecule is derivatised with a fluorescent probe or is fluorescent itself, the binding affinity can be measured using Fluorescence Polarisation (FP). […] Assay measurements were performed in 50 mM HEPES pH7.4, 10 mM MgCl2, 1 mM DTT, 0.01% CHAPS in a final assay volume of 12 μl. […]
measurement-name: IC50 (µM)

As a guide, the following entries are already answered.
[[record]]
smiles_text = "Cc1ccc(Oc2ccnc(Nc3ccc(C(=O)NCCN4CCS(=O)(=O)CC4)cc3)c2)c(C)n1"
study_target = "human ALK5 (Homo sapiens)"
value_reported = 0.0362

[[record]]
smiles_text = "COc1ccc(-c2nc(C)ccc2Oc2ccnc(Nc3cc(OC)c(OC)c(OC)c3)c2)cc1"
study_target = "human ALK5 (Homo sapiens)"
value_reported = 0.0228

[[record]]
smiles_text = "Cc1cc(Oc2ccnc(Nc3ccc(Cl)cc3)c2)c(-c2ccccn2)nc1C"
study_target = "human ALK5 (Homo sapiens)"
value_reported = 0.894

[[record]]
smiles_text = "Cc1cc(Oc2ccnc(Nc3ccc(C(=O)NCCCN)cc3)c2)c(-c2ccccn2)nc1C"
study_target = "human ALK5 (Homo sapiens)"
value_reported = 0.00145

[[record]]
smiles_text = "Cc1ccc(Oc2ccnc(Nc3cccc(S(N)(=O)=O)c3)c2)c(C)n1"
study_target = "human ALK5 (Homo sapiens)"
value_reported = 0.00764

[[record]]
smiles_text = "Cc1ccc(Oc2ccnc(Nc3ccc(C(N)=O)cc3)c2)c(-c2ccco2)n1"
study_target = "human ALK5 (Homo sapiens)"
value_reported = 0.0204


a = Cc1ccc(Oc2ccnc(Nc3ccc(S(N)(=O)=O)cc3)c2)c(-c2ccccc2)n1
b = Cc1ccc(Oc2ccnc(Nc3ccc(C(N)=O)cc3)c2)c(C)n1
Exercise: Lab note: check whether a or b shows the higher recorded IC50. To answer, give the label that identifies your chosen option.
Solution: b
(b: 0.0694 µM, a: 0.014 µM)

* * *

Biological target: human ALK5 (Homo sapiens, UniProt P36897)
Assay: ALK5 Enzyme Assay 2 (fluorescence polarisation probe displacement)
Type: binding
Set-up: 6His tagged human ALK5 (residues162-503) was grown and purified from insect cells; 6His; made in house; host or cells: insect cells
pIC50: −log10 of the molar value.
measurement-name: pIC50

a = COc1cc(Nc2cc(Oc3ccc(C)nc3C)ccn2)cc(OC)c1OC
b = COc1ccccc1Nc1cc(Oc2cc(C)c(C)nc2-c2ccccn2)ccn1
Exercise: Name the one with the greater pIC50 value, either a or b as given. Write down the label attached to your selection.
Solution: b
(b: 8.67, a: 7.46)

* * *

Target: human ALK5 (Homo sapiens)
Test: ALK5 Enzyme Assay 2 (fluorescence polarisation probe displacement)
Type: binding
Design: 6His tagged human ALK5 (residues162-503) was grown and purified from insect cells; 6His; made in house; host or cells: insect cells
Conditions: read-out: EAA2: activity (μM) using Enzyme Assay 2
measurement-name: IC50 (µM)

[[record]]
molecule = "Cc1cc(Oc2ccnc(Nc3cccc(S(N)(=O)=O)c3)c2)c(-c2ccccn2)nc1C"
measurement_name = "IC50"
value_reported = 0.0121

[[record]]
molecule = "Cc1ccc(Oc2ccnc(Nc3ccc(CC#N)cc3)c2)c(-c2ccco2)n1"
measurement_name = "IC50"
value_reported = 0.00299

[[record]]
molecule = "Cc1ccc(Oc2ccnc(Nc3cccc(CN4CCN(C(=O)CCN)CC4)c3)c2)c(C)n1"
measurement_name = "IC50"
value_reported = 0.0262

[[record]]
molecule = "CCCCCNC(=O)N1CCN(Cc2cccc(Nc3cc(Oc4ccc(C)nc4C)ccn3)c2)CC1"
measurement_name = "IC50"
value_reported = 0.0159

[[record]]
molecule = "COCCCNS(=O)(=O)c1ccc(Nc2cc(Oc3ccc(C)nc3C)ccn2)cc1"
measurement_name = "IC50"
value_reported = 0.269

[[record]]
molecule = "Cc1ccc(Oc2ccnc(Nc3ccc(S(=O)(=O)N(C)C)cc3)c2)c(C)n1"
measurement_name = "IC50"
value_reported = 0.37


A = Cc1ccc(Oc2ccnc(Nc3cccc(CN4CCN(C(=O)NC5CCCCC5)CC4)c3)c2)c(C)n1
B = Cc1ccc(Oc2ccnc(Nc3ccc(C(=O)NCCN4CC5CCC(C4)O5)cc3)c2)c(C)n1
Exercise: Compare IC50: is it lower for A or for B ? // caller expects the label of the chosen entry
Solution: A
(A: 0.0237 µM, B: 0.0495 µM)

* * *

Molecular target: human ALK5 (Homo sapiens, UniProt P36897)
Assay: ALK5 Enzyme Assay 2 (fluorescence polarisation probe displacement)
Type: binding
Design: 6His tagged human ALK5 (residues162-503) was grown and purified from insect cells; 6His; made in house; host or cells: insect cells
Details: read-out: EAA2: activity (μM) using Enzyme Assay 2
measurement-name: IC50 (µM)

[[record]]
compound = "CNS(=O)(=O)Cc1ccc(Nc2cc(Oc3cc(C)c(C)nc3-c3ccccn3)ccn2)cc1"
measurement_unit = "µM"
value_reported = 0.0169

[[record]]
compound = "Cc1cc(Oc2ccnc(Nc3cccc(C(=O)N4CCCC(C)C4)c3)c2)c(-c2ccccn2)nc1C (centres unmarked)"
measurement_unit = "µM"
value_reported = 0.0114

[[record]]
compound = "COc1cc(Nc2cc(Oc3cc(C)c(C)nc3-c3cccc(C)n3)ccn2)cc(OC)c1OC"
measurement_unit = "µM"
value_reported = 0.0723

[[record]]
compound = "Cc1ccc(Oc2ccnc(Nc3cccc(S(=O)(=O)N4CCOCC4)c3)c2)c(C)n1"
measurement_unit = "µM"
value_reported = 0.0319

[[record]]
compound = "Cc1cc(Oc2ccnc(Nc3ccc(S(C)(=O)=O)cc3)c2)c(-c2ccccn2)nc1C"
measurement_unit = "µM"
value_reported = 0.0103


P = COCC(C)NS(=O)(=O)c1ccc(Nc2cc(Oc3ccc(C)nc3C)ccn2)cc1 (centres unmarked)
Q = CCc1ccc(Oc2ccnc(Nc3ccc(S(N)(=O)=O)cc3)c2)c(-c2ccccn2)n1
Exercise: Of P and Q , which one carries the higher reported IC50? Give the label of your selection.
Solution: P
(P: 0.155 µM, Q: 0.0165 µM)

1 = CNC(=O)CN1CCN(Cc2cccc(Nc3cc(Oc4ccc(C)nc4C)ccn3)c2)CC1
2 = Cc1ccc(Oc2ccnc(Nc3ccc(C(=O)NCCn4cccc4)cc3)c2)c(C)n1
Exercise: Could you point out whether the larger IC50 belongs to 1 or to 2 ? Your answer should be the label attached to the chosen record.
Solution: 2

1 = Cc1ccc(Oc2ccnc(Nc3cccc(CN4CCN(CCN5CCNC5=O)CC4)c3)c2)c(C)n1
2 = COc1cccc(-c2nc(C)ccc2Oc2ccnc(Nc3cc(OC)c(OC)c(OC)c3)c2)c1
Exercise: Please indicate which item has the smaller measured IC50: 1 versus 2 Indicate which entry you chose by stating its label.
Solution: 1

P = CC(=O)N(C)c1ccc(Nc2cc(Oc3ccc(C)nc3C)ccn2)cc1
Q = Cc1cc(Oc2ccnc(Nc3cc(N4CCOCC4)cc(N4CCOCC4)c3)c2)c(-c2ccccn2)nc1C
Exercise: Short answer wanted: higher IC50, P or Q ? Lab log: write the label of the selected item as the result.
Solution: P
(P: 0.215 µM, Q: 0.125 µM)

Numbers sourced from patent US20090048269A1.
